Target: Tyrosine-protein kinase Lyn (Homo sapiens) (UniProt P07948);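 note: kinase tested as its LYN B splice variant, values given as mean percent inhibition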
Sequence (P07948 2-512 limits assumed): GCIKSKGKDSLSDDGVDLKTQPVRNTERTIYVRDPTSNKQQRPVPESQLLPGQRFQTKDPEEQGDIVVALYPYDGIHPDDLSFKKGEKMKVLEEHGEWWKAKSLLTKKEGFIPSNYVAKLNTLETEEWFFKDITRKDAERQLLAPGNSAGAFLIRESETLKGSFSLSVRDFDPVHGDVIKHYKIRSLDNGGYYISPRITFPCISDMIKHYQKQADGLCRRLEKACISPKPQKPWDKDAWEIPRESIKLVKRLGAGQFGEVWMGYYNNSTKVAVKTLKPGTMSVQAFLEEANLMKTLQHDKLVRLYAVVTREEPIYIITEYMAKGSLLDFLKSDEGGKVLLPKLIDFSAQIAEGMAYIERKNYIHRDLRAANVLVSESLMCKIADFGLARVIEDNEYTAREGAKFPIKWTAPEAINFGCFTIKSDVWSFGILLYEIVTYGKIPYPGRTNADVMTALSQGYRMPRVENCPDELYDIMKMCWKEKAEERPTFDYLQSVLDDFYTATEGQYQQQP
Settings: at 1 µM
Description: GSK_PKIS: LYN B (splice variant) mean inhibition at 1 uM [Nanosyn]
Catalogue of compounds with associated inhibition
Express it in %; write the number only.

Query: Would you kindly share the measured inhibition for CCn1c(-c2nonc2N)nc2cncc(C(=O)N3CC[C@H](N)C3)c21 ?
Response: 5.67

Query: Again, but for CS(=O)(=O)CCNCc1nc(-c2ccc3ncnc(Nc4ccc(F)c(Cl)c4)c3c2)cs1
Response: 19.4

Query: Again, but for COc1cc2ncn(-c3cc(OCc4ccccc4C(F)(F)F)c(C(N)=O)s3)c2cc1OC
Response: 17.4

Query: Again, but for CCn1c(-c2nonc2N)nc2c(N3CCCC3)nccc21
Response: 0.52

Query: Again, but for COC(=O)Nc1nc2cc(Oc3ccc(NC(=O)Nc4cccc(C(=O)O)c4)cc3)ccc2[nH]1
Response: 2.9

Query: Again, but for COc1cccc(-n2ncc3c(N/N=C/c4cccc(F)c4)ncnc32)c1
Response: 50.7

More entries:
Query: Would you kindly share the measured inhibition for Cc1nnc(-c2ccc(C)c(-c3ccc(C(=O)Nc4cccc(C#N)c4)cc3)c2)o1 ?
Response: 5.78

Query: Again, but for COc1cc(C=NNc2ncnc3c2cnn3-c2ccccc2)ccc1O
Response: 62.8

----------
Catalogue of molecules with associated inhibition
Molecular target: cAMP-dependent protein kinase catalytic subunit PRKX (Homo sapiens);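 note: values are mean percent inhibition of PRKX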
Conditions: at 0.1 µM
Express it in %; write the number only.

The cases that follow already have their inhibition on record.
Query: Would you kindly share the measured inhibition for Nc1nc(-c2ccc3c(c2)C(=Cc2cc(Br)c(O)c(Br)c2)C(=O)N3)cs1 ?
Response: -0.49

Query: Again, but for COc1ccc(-c2ccncc2)cc1C(N)=O
Response: 2.9

Query: Again, but for Nc1ncnc2occ(-c3ccc(NC(=O)Nc4cc(C(F)(F)F)cc(C(F)(F)F)c4)cc3)c12
Response: -0.03

Query: Again, but for CN(C)c1cc2c(Nc3ccc4nc(Cc5ccccc5)[nH]c4c3)ncnc2cn1
Response: 2.16

Query: Again, but for O=C1NC(=O)C(c2ccc(Cl)cc2)=C1Nc1ccc(Cl)c(C(=O)O)c1
Response: -1.61

Query: Again, but for Cc1cccc(-c2n[nH]cc2-c2ccc3ncccc3n2)n1
Response: 0.91

More entries:
Query: Would you kindly share the measured inhibition for Fc1cccc(COc2ccc(Nc3ncnc4cc(-c5ccc[nH]5)sc34)cc2Cl)c1 ?
Response: 2

----------
Biological target: Serine/threonine-protein kinase Sgk2 (Homo sapiens) (UniProt Q9HBY8)
Sequence (whole entry): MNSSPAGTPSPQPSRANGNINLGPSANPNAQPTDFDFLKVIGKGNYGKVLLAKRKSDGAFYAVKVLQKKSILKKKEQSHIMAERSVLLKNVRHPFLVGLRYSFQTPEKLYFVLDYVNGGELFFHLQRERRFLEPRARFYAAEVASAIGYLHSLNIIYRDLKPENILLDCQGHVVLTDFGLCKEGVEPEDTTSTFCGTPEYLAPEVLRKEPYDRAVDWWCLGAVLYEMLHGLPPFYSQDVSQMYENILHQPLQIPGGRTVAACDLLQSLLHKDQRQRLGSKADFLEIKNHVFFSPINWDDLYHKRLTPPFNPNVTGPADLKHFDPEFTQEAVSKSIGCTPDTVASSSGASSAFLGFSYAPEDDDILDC
Conditions: at 1 µM
Description: GSK_PKIS: SGK2 mean inhibition at 1 uM [Nanosyn]
Catalogue of compounds with associated inhibition
Express it in %; write the number only.

The cases that follow already have their inhibition on record.
Query: Would you kindly share the measured inhibition for COc1ccc(-c2coc3ncnc(N)c23)cc1 ?
Response: -0.41

Query: Again, but for CCN1CCC(CC(=O)Nc2n[nH]c3nc(-c4cccs4)c(Br)cc23)CC1
Response: -0.81

Query: Again, but for Cc1ccc(C(=O)NC2CCCCC2)cc1-c1ccc(C(=O)NCC2CC2)cc1
Response: -1.56

Query: Again, but for O=C1NC(=O)C(c2ccc(Cl)cc2)=C1Nc1ccc(Cl)c(C(=O)O)c1
Response: -0.77

Query: Again, but for COc1cc(C=NNc2ncnc3c2cnn3-c2ccccc2)ccc1O
Response: 12.3

More entries:
Query: Would you kindly share the measured inhibition for COC(=O)Nc1nc2cc(Oc3cccc(NC(=O)Nc4cc(C(F)(F)F)ccc4F)c3)ccc2[nH]1 ?
Response: -3.24

Query: Again, but for COc1ccccc1Nc1ncc(-c2ccccc2)o1
Response: 0.66

----------
Biological target: Vascular endothelial growth factor receptor 1 (Homo sapiens)
Details: at 1 µM
Description: GSK_PKIS: FLT1 mean inhibition at 1 uM [Nanosyn]
endpoint: inhibition
Please state the number and follow it with the unit.

The cases that follow already have their inhibition on record.
Query: Would you kindly share the measured inhibition for COC(=O)Nc1nc2cc(Oc3cccc(NC(=O)Nc4cc(C(F)(F)F)ccc4F)c3)ccc2[nH]1 ?
Response: 25.7%

Query: Again, but for COc1ccc(-c2nn3ncccc3c2-c2ccnc(Nc3ccc(Cl)c(C(F)(F)F)c3)n2)cc1
Response: 1.63%

We next turn to a different compound, shown below.
Query: Would you kindly share the measured inhibition for NCc1ccc(-c2nc(-c3ccc(Cl)c(O)c3)c(-c3ccncc3)[nH]2)cc1 ?
Response: 70.6%

----------
Biological target: Dual specificity tyrosine-phosphorylation-regulated kinase 1B (Homo sapiens)
Settings: at 0.1 µM
endpoint: inhibition (%)
Express it in %; write the number only.

The cases that follow already have their inhibition on record.
Query: Request: inhibition, test system Dual specificity tyrosine-phosphorylation-regulated kinase 1B (Homo sapiens), entry O=C1NC(=O)C(N2CCc3ccccc32)=C1c1ccc(Cl)cc1
Response: 0.13

Query: Again, but for COc1cc(C)c(NC(=O)CN(C)C)cc1Nc1nc(Nc2cccc(F)c2C(N)=O)c2cc[nH]c2n1
Response: 1.59

More entries:
Query: Request: inhibition, test system Dual specificity tyrosine-phosphorylation-regulated kinase 1B (Homo sapiens), entry O=C1Nc2ccc(C(=O)c3ccco3)cc2C1=Cc1cc(Cl)c(O)c(Cl)c1;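 note: values are mean percent inhibition of DYRK1B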
Response: 47.4

Query: Again, but for O=C1NC(=O)C(c2ccccc2Cl)=C1Nc1cccc(O)c1
Response: 2.78

Query: Again, but for NS(=O)(=O)c1cccc(-c2ccc3c(NC(=O)C4CC4)n[nH]c3c2)c1
Response: 2.16

Query: Again, but for CCCN1CCC(Oc2cc(Nc3nc(Nc4cccc(F)c4C(N)=O)c4cc[nH]c4n3)c(OC)cc2Cl)CC1
Response: 3.49

----------
Target: Serine/threonine-protein kinase BRSK2 (Homo sapiens) (UniProt Q8IWQ3);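 note: values are mean inhibition of BRSK2 from the GSK PKIS screening dataset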
Sequence (whole entry): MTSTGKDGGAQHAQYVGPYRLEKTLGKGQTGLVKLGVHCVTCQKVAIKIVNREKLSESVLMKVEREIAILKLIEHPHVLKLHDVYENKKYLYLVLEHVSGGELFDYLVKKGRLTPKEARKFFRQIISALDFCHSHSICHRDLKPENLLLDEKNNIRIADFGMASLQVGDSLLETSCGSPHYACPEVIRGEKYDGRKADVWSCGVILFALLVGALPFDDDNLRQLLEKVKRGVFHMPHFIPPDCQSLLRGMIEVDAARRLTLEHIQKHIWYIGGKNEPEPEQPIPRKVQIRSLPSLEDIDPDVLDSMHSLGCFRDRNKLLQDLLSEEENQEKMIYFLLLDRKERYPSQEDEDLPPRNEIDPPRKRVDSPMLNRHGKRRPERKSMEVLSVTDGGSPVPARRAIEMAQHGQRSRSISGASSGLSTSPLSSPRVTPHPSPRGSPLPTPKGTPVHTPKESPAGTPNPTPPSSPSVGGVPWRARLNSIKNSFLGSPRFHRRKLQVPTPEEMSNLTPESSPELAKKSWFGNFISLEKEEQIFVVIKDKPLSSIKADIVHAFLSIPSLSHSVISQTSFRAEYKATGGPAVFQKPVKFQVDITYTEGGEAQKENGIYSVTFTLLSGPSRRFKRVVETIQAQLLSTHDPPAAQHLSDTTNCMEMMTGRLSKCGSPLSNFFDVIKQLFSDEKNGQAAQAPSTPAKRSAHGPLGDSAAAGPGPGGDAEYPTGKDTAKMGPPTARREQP
Conditions: at 0.1 µM
Catalogue of compounds with associated inhibition
Express it in %; write the number only.

Query: Would you kindly share the measured inhibition for Cc1nnc(-c2ccc(C)c(-c3ccc(C(=O)Nc4cccc(C#N)c4)cc3)c2)o1 ?
Response: 2.39

Query: Again, but for CS(=O)(=O)CCNCc1ccc(-c2ccc3ncnc(Nc4ccc(OCc5cccc(F)c5)c(C(F)(F)F)c4)c3c2)o1
Response: 1.37

Query: Again, but for c1cnn2ncc(-c3ccnc(Nc4ccc5c(c4)OCCO5)n3)c2c1
Response: 2.51

Query: Again, but for CCn1c(-c2nonc2N)nc2c(C#CC(C)(C)O)nc(CN3CCCC3)cc21
Response: 1.38

Query: Again, but for COc1ccc2cc(-c3c(-c4ccncc4)nc(-c4ccc([S+](C)[O-])cc4)n3C)ccc2c1 (stereo unspecified)
Response: 1.67

----------
Target: Tyrosine-protein kinase Lck (Homo sapiens) (UniProt P06239);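 note: reported Lck percent inhibition is a mean value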
Sequence (P06239 2-509 limits assumed): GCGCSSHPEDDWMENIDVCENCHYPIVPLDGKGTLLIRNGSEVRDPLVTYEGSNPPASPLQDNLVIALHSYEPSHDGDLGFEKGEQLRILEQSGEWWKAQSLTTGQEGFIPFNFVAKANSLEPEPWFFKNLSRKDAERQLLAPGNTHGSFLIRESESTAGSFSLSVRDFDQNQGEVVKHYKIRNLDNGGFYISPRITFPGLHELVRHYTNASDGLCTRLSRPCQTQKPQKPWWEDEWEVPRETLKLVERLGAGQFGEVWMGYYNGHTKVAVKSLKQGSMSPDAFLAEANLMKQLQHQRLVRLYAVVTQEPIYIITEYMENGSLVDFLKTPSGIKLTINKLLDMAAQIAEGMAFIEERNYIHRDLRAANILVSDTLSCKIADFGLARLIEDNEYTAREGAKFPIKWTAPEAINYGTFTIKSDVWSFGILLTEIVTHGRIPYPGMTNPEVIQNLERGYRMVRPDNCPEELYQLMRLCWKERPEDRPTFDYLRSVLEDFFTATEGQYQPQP
Settings: at 1 µM
endpoint: inhibition (%)
Express it in %; write the number only.

Query: Would you kindly share the measured inhibition for NC(=O)c1cccc(Nc2nccc(Nc3cccc4[nH]ncc34)n2)c1 ?
Response: 81.8

Query: Again, but for Cc1nnc(-c2ccc(C)c(-c3ccc(C(=O)Nc4cccc(C#N)c4)cc3)c2)o1
Response: 2.99

Query: Again, but for Nc1ncnc2occ(-c3ccc(NC(=O)Nc4cc(C(F)(F)F)cc(C(F)(F)F)c4)cc3)c12
Response: 38.8

Query: Again, but for COc1ccc(-c2ccncc2)cc1C(N)=O
Response: 4.47

Query: Again, but for COc1cc2c(cc1Nc1nc(N3CCc4ccccc43)c3cc[nH]c3n1)N(C(=O)CN(C)C)CC2
Response: 6

Query: Again, but for O=C1NC(=O)C(c2ccc(Cl)cc2)=C1Nc1ccc(Cl)c(C(=O)O)c1
Response: 0.35
